System: 327498-153-R-J2-PDC multicell spheroid viability
Method Notes: Anticancer human tumor 327498-153-R-J2-PDC patient-derived uterine carcinosarcoma cell line growth inhibition [IpAb]
Condition Details: second compound 0.1 µM; first compound 0.0316 µM; stronger effect = lower value
Description: Combinatorial screen of targeted agents with ipatasertib and abemaciclib in multi-cell type tumor spheroids […] Compounds. […] If the clinical Cmax for an agent had not been determined, the highest concentration tested was 10 microM. NCI60 Cell Culture. […] The optimal seeding densities for each of the cell lines at each time point assessed were determined prior to performing the concentration response studies. […]
Doc: threshold 50% (exclusive). Items with viability, T/C beneath it return TRUE; others return FALSE.

Worked cases, answers included:
| Molecule | Target Entity | Category |
| --- | --- | --- |
| CC1(C)CCC(CN2CCN(c3ccc(C(=O)NS(=O)(=O)c4ccc(NCC5CCOCC5)c([N+](=O)[O-])c4)c(Oc4cnc5[nH]ccc5c4)c3)CC2)=C(c2ccc(Cl)cc2)C1 + CC(C)NCC(C(=O)N1CCN(c2ncnc3c2C(C)CC3O)CC1)c1ccc(Cl)cc1 | 327498-153-R-J2-PDC multicell spheroid viability | FALSE |
| CC(C)n1nc(-c2ccc3oc(N)nc3c2)c2c(N)ncnc21 + CC(C)NCC(C(=O)N1CCN(c2ncnc3c2C(C)CC3O)CC1)c1ccc(Cl)cc1 | 327498-153-R-J2-PDC multicell spheroid viability | TRUE |
| Cn1ncnc1[C@H]1c2n[nH]c(=O)c3cc(F)cc(c23)N[C@@H]1c1ccc(F)cc1 + CCN1CCN(Cc2ccc(Nc3ncc(F)c(-c4cc(F)c5nc(C)n(C(C)C)c5c4)n3)nc2)CC1 | 327498-153-R-J2-PDC multicell spheroid viability | TRUE |
| COc1c(OCCCN2CCOCC2)ccc2c3n(c(=NC(=O)c4cnc(N)nc4)nc12)CCN3 + CC(C)NCC(C(=O)N1CCN(c2ncnc3c2C(C)CC3O)CC1)c1ccc(Cl)cc1 | 327498-153-R-J2-PDC multicell spheroid viability | FALSE |
| Cn1nccc1Nc1nccc(-c2ccn(C(CO)c3ccc(Cl)c(F)c3)c(=O)c2)n1 (centres undefined) + CC(C)NCC(C(=O)N1CCN(c2ncnc3c2C(C)CC3O)CC1)c1ccc(Cl)cc1 | 327498-153-R-J2-PDC multicell spheroid viability | FALSE |
| COc1c(OCCCN2CCOCC2)ccc2c3n(c(=NC(=O)c4cnc(N)nc4)nc12)CCN3 + CCN1CCN(Cc2ccc(Nc3ncc(F)c(-c4cc(F)c5nc(C)n(C(C)C)c5c4)n3)nc2)CC1 | 327498-153-R-J2-PDC multicell spheroid viability | TRUE |
| CC1(C)CCC(CN2CCN(c3ccc(C(=O)NS(=O)(=O)c4ccc(NCC5CCOCC5)c([N+](=O)[O-])c4)c(Oc4cnc5[nH]ccc5c4)c3)CC2)=C(c2ccc(Cl)cc2)C1 + CCN1CCN(Cc2ccc(Nc3ncc(F)c(-c4cc(F)c5nc(C)n(C(C)C)c5c4)n3)nc2)CC1 | 327498-153-R-J2-PDC multicell spheroid viability | FALSE |
| Cn1nccc1Nc1nccc(-c2ccn(C(CO)c3ccc(Cl)c(F)c3)c(=O)c2)n1 (centres undefined) + CCN1CCN(Cc2ccc(Nc3ncc(F)c(-c4cc(F)c5nc(C)n(C(C)C)c5c4)n3)nc2)CC1 | 327498-153-R-J2-PDC multicell spheroid viability | FALSE |

Query block: A record lists Cn1ncc(Cl)c1-c1cc(C(=O)NC(CN)Cc2cccc(F)c2)sc1Cl (centres undefined) + CCN1CCN(Cc2ccc(Nc3ncc(F)c(-c4cc(F)c5nc(C)n(C(C)C)c5c4)n3)nc2)CC1 . Is its viability, T/C below 50%?
Result block: FALSE

* * *

System: 327498-153-R-J2-PDC multicell spheroid viability
Method Notes: Anticancer human tumor 327498-153-R-J2-PDC cell line growth inhibition [IpAb];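 also: spheroids exposed to agents for 7 days; 100% = DMSO vehicle control viability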
Condition Details: second compound 1 µM; first compound 3.16 µM; stronger effect = lower value
Doc: threshold 30% (exclusive). Items with viability, T/C beneath it return 1 (yes); others return 0 (no).

Worked cases, answers included:
| Compound | Category |
| --- | --- |
| Cn1ncc(Cl)c1-c1cc(C(=O)NC(CN)Cc2cccc(F)c2)sc1Cl (centres undefined) + CCN1CCN(Cc2ccc(Nc3ncc(F)c(-c4cc(F)c5nc(C)n(C(C)C)c5c4)n3)nc2)CC1 | 1 (yes) |
| Cn1nccc1Nc1nccc(-c2ccn(C(CO)c3ccc(Cl)c(F)c3)c(=O)c2)n1 (centres undefined) + CCN1CCN(Cc2ccc(Nc3ncc(F)c(-c4cc(F)c5nc(C)n(C(C)C)c5c4)n3)nc2)CC1 | 0 (no) |
| C=CC(=O)N1CCN(c2nc(=O)n(-c3c(C)ccnc3C(C)C)c3nc(-c4c(O)cccc4F)c(F)cc23)C(C)C1 (centres undefined) + CCN1CCN(Cc2ccc(Nc3ncc(F)c(-c4cc(F)c5nc(C)n(C(C)C)c5c4)n3)nc2)CC1 | 0 (no) |
| Cc1nc(NC(=O)N2CCCC2C(N)=O)sc1-c1ccnc(C(C)(C)C(F)(F)F)c1 (centres undefined) + CC(C)NCC(C(=O)N1CCN(c2ncnc3c2C(C)CC3O)CC1)c1ccc(Cl)cc1 | 0 (no) |
| C=CCn1c(=O)c2cnc(Nc3ccc(N4CCN(C)CC4)cc3)nc2n1-c1cccc(C(C)(C)O)n1 + CC(C)NCC(C(=O)N1CCN(c2ncnc3c2C(C)CC3O)CC1)c1ccc(Cl)cc1 | 1 (yes) |

Query block: A record lists Cc1nc(NC(=O)N2CCCC2C(N)=O)sc1-c1ccnc(C(C)(C)C(F)(F)F)c1 (centres undefined) + CCN1CCN(Cc2ccc(Nc3ncc(F)c(-c4cc(F)c5nc(C)n(C(C)C)c5c4)n3)nc2)CC1 . Is its viability, T/C below 30%?
Result block: 0 (no)

Query block: A record lists CCCS(=O)(=O)Nc1ccc(F)c(C(=O)c2c[nH]c3ncc(-c4ccc(Cl)cc4)cc23)c1F + CC(C)NCC(C(=O)N1CCN(c2ncnc3c2C(C)CC3O)CC1)c1ccc(Cl)cc1 . Is its viability, T/C below 30%?
Result block: 0 (no)

Query block: A record lists CCCS(=O)(=O)Nc1ccc(F)c(C(=O)c2c[nH]c3ncc(-c4ccc(Cl)cc4)cc23)c1F + CCN1CCN(Cc2ccc(Nc3ncc(F)c(-c4cc(F)c5nc(C)n(C(C)C)c5c4)n3)nc2)CC1 . Is its viability, T/C below 30%?
Result block: 0 (no)

Query block: A record lists C=CCn1c(=O)c2cnc(Nc3ccc(N4CCN(C)CC4)cc3)nc2n1-c1cccc(C(C)(C)O)n1 + CCN1CCN(Cc2ccc(Nc3ncc(F)c(-c4cc(F)c5nc(C)n(C(C)C)c5c4)n3)nc2)CC1 . Is its viability, T/C below 30%?
Result block: 1 (yes)

* * *

Test system: 327498-153-R-J2-PDC multicell spheroid viability
Method Notes: Anticancer human tumor 327498-153-R-J2-PDC cell line growth inhibition [IpAb];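 also: spheroids exposed to agents for 7 days; 100% = DMSO vehicle control viability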
Condition Details: second compound 1 µM; first compound 0.316 µM; stronger effect = lower value
Doc: threshold 50% (exclusive). Items with viability, T/C beneath it return Condition met; others return Condition not met.

Worked cases, answers included:
| Compound | Category |
| --- | --- |
| Cc1nc(NC(=O)N2CCCC2C(N)=O)sc1-c1ccnc(C(C)(C)C(F)(F)F)c1 (stereo unspecified) + CC(C)NCC(C(=O)N1CCN(c2ncnc3c2C(C)CC3O)CC1)c1ccc(Cl)cc1 | Condition not met |
| Cn1nccc1Nc1nccc(-c2ccn(C(CO)c3ccc(Cl)c(F)c3)c(=O)c2)n1 (stereo unspecified) + CCN1CCN(Cc2ccc(Nc3ncc(F)c(-c4cc(F)c5nc(C)n(C(C)C)c5c4)n3)nc2)CC1 | Condition met |
| CC1(C)CCC(CN2CCN(c3ccc(C(=O)NS(=O)(=O)c4ccc(NCC5CCOCC5)c([N+](=O)[O-])c4)c(Oc4cnc5[nH]ccc5c4)c3)CC2)=C(c2ccc(Cl)cc2)C1 + CC(C)NCC(C(=O)N1CCN(c2ncnc3c2C(C)CC3O)CC1)c1ccc(Cl)cc1 | Condition not met |
| COc1c(OCCCN2CCOCC2)ccc2c3n(c(=NC(=O)c4cnc(N)nc4)nc12)CCN3 + CCN1CCN(Cc2ccc(Nc3ncc(F)c(-c4cc(F)c5nc(C)n(C(C)C)c5c4)n3)nc2)CC1 | Condition met |

Field: next compound
Query block: A record lists CCCS(=O)(=O)Nc1ccc(F)c(C(=O)c2c[nH]c3ncc(-c4ccc(Cl)cc4)cc23)c1F + CCN1CCN(Cc2ccc(Nc3ncc(F)c(-c4cc(F)c5nc(C)n(C(C)C)c5c4)n3)nc2)CC1 . Is its viability, T/C below 50%?
Result block: Condition not met

* * *

Test system: 327498-153-R-J2-PDC multicell spheroid viability
Method Notes: Anticancer human tumor 327498-153-R-J2-PDC cell line growth inhibition [IpAb]; active means viability on the fitted dose curve at most 10% of control; inactive means the rest;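 also: spheroids exposed to agents for 7 days; 100% = DMSO vehicle control viability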
Condition Details: second compound 0.1 µM; first compound 0.949 µM
Your answer must be one of the following: active, inactive

Worked cases, answers included:
| Compound | Category |
| --- | --- |
| CC(C)(C)c1cnc(CSc2cnc(NC(=O)C3CCNCC3)s2)o1 + CC(C)NCC(C(=O)N1CCN(c2ncnc3c2C(C)CC3O)CC1)c1ccc(Cl)cc1 | active |
| Cn1cnc2c(F)c(Nc3ccc(Br)cc3Cl)c(C(=O)NOCCO)cc21 + CC(C)NCC(C(=O)N1CCN(c2ncnc3c2C(C)CC3O)CC1)c1ccc(Cl)cc1 | inactive |

Query block: Please state the recorded outcome for this compound: CC(C)(C)c1cnc(CSc2cnc(NC(=O)C3CCNCC3)s2)o1 + CCN1CCN(Cc2ccc(Nc3ncc(F)c(-c4cc(F)c5nc(C)n(C(C)C)c5c4)n3)nc2)CC1
Result block: active

Query block: Please state the recorded outcome for this compound: Cn1cnc2c(F)c(Nc3ccc(Br)cc3Cl)c(C(=O)NOCCO)cc21 + CCN1CCN(Cc2ccc(Nc3ncc(F)c(-c4cc(F)c5nc(C)n(C(C)C)c5c4)n3)nc2)CC1
Result block: inactive
